Can you tell me self-cleavage for the items I'm about to list?
B1: OR4K15 (parent)
chain: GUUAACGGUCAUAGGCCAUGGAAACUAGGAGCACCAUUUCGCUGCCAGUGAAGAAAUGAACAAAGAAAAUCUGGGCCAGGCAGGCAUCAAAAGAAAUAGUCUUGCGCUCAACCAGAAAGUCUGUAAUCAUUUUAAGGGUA

variants of: B1; experiment: self-cleavage, relative activity (ratio to wild type); higher = more cleavage; in vitro, sequencing; the parent is a self-cleaving ribozyme
Numbers only.

[
  {
    "change": "U38A U43A",
    "quantityMeasured": "self-cleavage",
    "testValue": 1.61
  },
  {
    "change": "U49A A111C",
    "quantityMeasured": "self-cleavage",
    "testValue": 0.01
  },
  {
    "change": "G8U A23G",
    "quantityMeasured": "self-cleavage",
    "testValue": 1.93
  },
  {
    "change": "U108A A110G",
    "quantityMeasured": "self-cleavage",
    "testValue": 0.01
  },
  {
    "change": "A47C C105U",
    "quantityMeasured": "self-cleavage",
    "testValue": 0.32
  },
  {
    "change": "A96G U122C",
    "quantityMeasured": "self-cleavage",
    "testValue": 1.38
  },
  {
    "change": "G41A A66G",
    "quantityMeasured": "self-cleavage",
    "testValue": 1.74
  },
  {
    "change": "A51G C76A",
    "quantityMeasured": "self-cleavage",
    "testValue": 0.07
  },
  {
    "change": "A110G A135G",
    "quantityMeasured": "self-cleavage",
    "testValue": 0.12
  },
  {
    "change": "C16U A52G",
    "quantityMeasured": "self-cleavage",
    "testValue": 0.37
  }
]

Could I get self-cleavage for every one of these entries?
1. U43G
2. U49A U70C
3. C45A

Ans:
[1.7, 0.3, 1.6]
